measurement_protocol: Pretargeting biodistribution of 111In-IMP 241, 281, 284 after 125I-hMN-14×m679
test_conditions: NCr nude, mouse, in vivo, total radioactivity
*1 amine or outer side, *2 acyl side, *3 side chain or, on linkers, in order; H or OH if unused. Where a SMILES comes first, the peptide text is derived from it. Side-chain parts run from the residue outwards. [ ]: non-standard residue; d: D form. The star is where a group is joined. DOTA = O=C(O)CN1CCN(CC(=O)O)CCN(CC(=O)*)CCN(CC(=O)O)CC1; NH(2-(imidazol-4-yl)ethyl) = c1ncc(CCN*)[nH]1; Suc = O=C(CCC(=O)[*:2])[*:1]
reported_endpoint: tissue uptake at 24 h (%ID/g)
A number alone suffices; assume %ID/g.

Data point: NC(=O)[C@H](CCCCNC(=O)CNC(=O)CCC(=O)NCCc1cnc[nH]1)NC(=O)[C@@H](Cc1ccc(O)cc1)NC(=O)[C@H](CCCCNC(=O)CNC(=O)CCC(=O)NCCc1cnc[nH]1)NC(=O)[C@H](Cc1ccccc1)NC(=O)CN1CCN(CC(=O)O)CCN(CC(=O)O)CCN(CC(=O)O)CC1 [IMP 241, DOTA-Phe-Lys(HSG)-D-Tyr-Lys(HSG)-NH2, reference compound] ({DOTA}-FK([Gly-Suc-NH(2-(imidazol-4-yl)ethyl)])[dY]K([Gly-Suc-NH(2-(imidazol-4-yl)ethyl)])-NH2) ; tissue uptake at 24 h = 0.28
